Cited source: patent US6444664B1

Quick list: Apo B-100 synthesis per entry.
- System: apo B-100
- protocol-summary: Apo B-100 synthesis by cultured cynomolgus (simian) hepatocytes, ELISA of medium
- Format: cell-based, cynomolgus monkey
- test-parameters: 100 μM, culture period 48 h to 72 h

{"molecule": "CC1C(=O)OC2C(O)C34C5CC(C(C)(C)C)C36C(OC(=O)C6O)OC4(C(=O)O5)C12O (centres unmarked) [BN 52051, Ginkgolide B, reference compound]", "Apo B-100 synthesis": "113 ± 34 (2) % of control"}

In: If you can, please state the reported Apo B-100 synthesis value of COc1cc([C@@H]2OC[C@@H](c3cc(OC)c(OC)c(OC)c3)O2)cc(OC)c1OC (relative stereo) [Transdioxolane, reference compound] .
Out: 105 ± 7 (3) % of control

In: Query (molecule): COc1cc([C@H]2CC[C@H](c3cc(OC)c(OC)c(OC)c3)O2)cc(OC)c1OC (relative stereo) [L-652,731, reference compound] ; field requested: Apo B-100 synthesis
Out: 76 ± 35 (2) % of control

---

Reported Apo(a) synthesis by item:
- Tested on: apo(a)
- protocol-summary: Apo(a) synthesis by cultured cynomolgus (simian) hepatocytes, ELISA of medium
- Assay type: cell-based, cynomolgus monkey
- test-parameters: 100 μM, culture period 48 h to 72 h

Answered examples (5):
{"compound": "CC1C(=O)OC2C(O)C34C5CC(C(C)(C)C)C36C(OC(=O)C6O)OC4(C(=O)O5)C12O (centres unmarked) [BN 52051, Ginkgolide B, reference compound]", "measured-value": "101 ± 1 (2) % of control"}
{"compound": "COc1cc([C@@H]2OC[C@H](c3cc(OC)c(OC)c(OC)c3)O2)cc(OC)c1OC (relative stereo) [Cisdioxolane, reference compound]", "measured-value": "83 ± 2 (3) % of control"}
{"compound": "Brc1nnc2n1-c1ccccc1C(c1ccccc1)=NC2 [Azepine 4]", "measured-value": "62 ± 22 (2) % of control"}
{"compound": "CCCCCCCCCCCCCCCCCCNC(=O)OC[C@@H]1CC[C@H](COP(=O)([O-])OCC[n+]2cccc3ccccc32)O1 (relative stereo) [SRI 63-441, reference compound]", "measured-value": "24 ± 1 (2) % of control"}
{"compound": "Cc1nnc2n1-c1ccc(Cl)cc1C(c1ccccc1)=NC2C (centres unmarked) [Azepine 3]", "measured-value": "42 ± 20 (3) % of control"}

In: Data request, read-out Apo(a) synthesis, for COc1cc([C@@H]2OC[C@@H](c3cc(OC)c(OC)c(OC)c3)O2)cc(OC)c1OC (relative stereo) [Transdioxolane, reference compound]
Out: 60 ± 12 (3) % of control

In: Looking for the measured Apo(a) synthesis of COc1cc([C@H]2CC[C@H](c3cc(OC)c(OC)c(OC)c3)O2)cc(OC)c1OC (relative stereo) [L-652,731, reference compound] , can you help?
Out: 66 ± 8 (2) % of control

In: Fill in: Apo(a) synthesis of Cc1nnc2n1-c1sccc1C(c1ccccc1)=NC2 [Azepine 1] is ___
Out: 34 ± 32 (6) % of control

---

- Test system: apo B-100
- protocol-summary: Apo B-100 synthesis by cultured cynomolgus (simian) hepatocytes, ELISA of medium
- Format: cell-based, cynomolgus monkey
- test-parameters: 100 μM, culture period 48 h to 72 h
Listing of recorded Apo B-100 synthesis by entry.

In: Would you kindly share the measured Apo B-100 synthesis for CCCCCCCCCCCCCCCCCCNC(=O)OC[C@@H]1CC[C@H](COP(=O)([O-])OCC[n+]2cccc3ccccc32)O1 (relative stereo) [SRI 63-441, reference compound] ?
Out: 142 ± 32 (2) % of control

---

- Tested on: apo B-100
- protocol-summary: Apo B-100 synthesis by cultured cynomolgus (simian) hepatocytes, ELISA of medium
- Format: cell-based, cynomolgus monkey
- test-parameters: 100 μM, culture period 48 h to 72 h
Each entry below lists one item and its recorded Apo B-100 synthesis value.

{"molecule": "Brc1nnc2n1-c1ccccc1C(c1ccccc1)=NC2 [Azepine 4]", "subject-of-test": "apo B-100", "measured-value": "95 ± 23 (2) % of control"}
{"molecule": "COc1cc([C@@H]2OC[C@H](c3cc(OC)c(OC)c(OC)c3)O2)cc(OC)c1OC (relative stereo) [Cisdioxolane, reference compound]", "subject-of-test": "apo B-100", "measured-value": "99 ± 21 (3) % of control"}
{"molecule": "Cc1nnc2n1-c1sccc1C(c1ccccc1)=NC2 [Azepine 1]", "subject-of-test": "apo B-100", "measured-value": "95 ± 23 (6) % of control"}

Attention now shifts to the item below.
In: Query: Apo B-100 synthesis; subject: Cc1nnc2n1-c1ccc(Cl)cc1C(c1ccccc1)=NC2C (stereo not shown) [Azepine 3]
Out: 102 ± 32 (2) % of control
